- test_protocol: Binding affinity to kappa opioid receptor in guinea pig cerebral cortex after 2.5 hrs
- Format: tissue-based, Cavia porcellus
parameter_measured: Ki (µM)
State just the number; it will be interpreted in µM.

// worked examples, Ki included
• CCCC[C@H](N)C(=O)N[C@@H](Cc1ccccc1)C(=O)N[C@H](Cc1c[nH]c2ccccc12)C(=O)N[C@@H](CCCNC(=N)N)C(N)=O = 4.55
• CC[C@H](C)[C@@H](NC(=O)[C@H](Cc1ccccc1)NC(=O)[C@@H](N)Cc1ccccc1)C(=O)N[C@@H](CCCNC(=N)N)C(N)=O = 0.0024
• CCCC[C@H](N)C(=O)N[C@@H](Cc1ccc2ccccc2c1)C(=O)N[C@@H](C(=O)N[C@@H](CCCNC(=N)N)C(N)=O)[C@@H](C)CC = 0.0015

// query I have this compound here, CCCC[C@H](N)C(=O)N[C@@H](Cc1ccc2ccccc2c1)C(=O)N[C@H](CCCC)C(=O)N[C@@H](CCCNC(=N)N)C(N)=O , and I need its recorded Ki.
// result 0.0023

// query I have this compound here, CCCC[C@H](N)C(=O)N[C@@H](Cc1ccc2ccccc2c1)C(=O)N[C@H](Cc1c[nH]c2ccccc12)C(=O)N[C@@H](CC1CCCCC1)C(N)=O , and I need its recorded Ki.
// result 10

// query I have this compound here, CCCC[C@H](N)C(=O)N[C@@H](Cc1ccccc1)C(=O)N[C@H](CCCC)C(=O)N[C@@H](CC1CCCCC1)C(N)=O , and I need its recorded Ki.
// result 0.071

// query I have this compound here, CC[C@H](C)[C@@H](NC(=O)[C@H](Cc1ccccc1)NC(=O)[C@@H](N)Cc1ccccc1)C(=O)N[C@@H](CC1CCCCC1)C(N)=O , and I need its recorded Ki.
// result 0.064

// query I have this compound here, CCCC[C@H](N)C(=O)N[C@@H](Cc1ccccc1)C(=O)N[C@@H](C(=O)N[C@@H](CCCNC(=N)N)C(N)=O)[C@@H](C)CC , and I need its recorded Ki.
// result 0.0093

// query I have this compound here, N=C(N)NCCC[C@H](NC(=O)[C@@H](Cc1c[nH]c2ccccc12)NC(=O)[C@H](Cc1ccccc1)NC(=O)[C@@H](N)Cc1ccccc1)C(N)=O , and I need its recorded Ki.
// result 1.14

// query I have this compound here, NC(=O)[C@H](CC1CCCCC1)NC(=O)[C@@H](Cc1c[nH]c2ccccc12)NC(=O)[C@H](Cc1ccc2ccccc2c1)NC(=O)[C@@H](N)Cc1ccccc1 , and I need its recorded Ki.
// result 6
